// provenance: ChEMBL document CHEMBL4627308

Entries below carry reported pKi on 5-hydroxytryptamine receptor 1A (Homo sapiens).
Bear in mind: pKi is minus log10 of a mol/L concentration; give just that figure.

Below are worked cases with known answers.
| compound | obsValue |
| --- | --- |
| C#CCOc1c(OC)cc2c3c1-c1cc([N+](=O)[O-])ccc1CC3N(C)CC2 (stereo unspecified) | 6.69 |
| COc1cc2c3c(c1OC1CC1)-c1cc([N+](=O)[O-])ccc1CC3N(C)CC2 (stereo unspecified) | 6.36 |

What does the record list as pKi for CN1CCc2cccc3c2C1Cc1ccc(N)cc1-3 (stereo unspecified) ?
6.57

Now the same for O=[N+]([O-])c1ccc2c(c1)-c1cccc3c1C(C2)NCC3 (stereo unspecified)
6.46

###

# testSystem: D(2) dopamine receptor (Homo sapiens, UniProt P14416)
# Sequence (P14416 whole entry): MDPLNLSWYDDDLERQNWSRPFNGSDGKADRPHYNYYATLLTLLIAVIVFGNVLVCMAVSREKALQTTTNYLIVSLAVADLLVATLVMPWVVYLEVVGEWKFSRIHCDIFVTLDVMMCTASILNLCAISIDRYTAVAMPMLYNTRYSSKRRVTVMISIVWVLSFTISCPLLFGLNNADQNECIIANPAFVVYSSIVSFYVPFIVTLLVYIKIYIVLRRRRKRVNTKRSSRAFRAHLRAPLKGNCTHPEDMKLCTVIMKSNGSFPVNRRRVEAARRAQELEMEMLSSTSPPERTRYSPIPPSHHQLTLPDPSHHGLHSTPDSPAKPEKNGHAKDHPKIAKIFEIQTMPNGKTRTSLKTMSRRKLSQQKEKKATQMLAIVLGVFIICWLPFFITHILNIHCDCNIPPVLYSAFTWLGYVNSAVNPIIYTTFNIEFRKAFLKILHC
# testMethodNotes: Binding affinity to human D2 receptor
parameter: Ki

| compound | parameter | obsValue |
| --- | --- | --- |
| CN1CCc2cccc3c2C1Cc1ccc(N)cc1-3 (centres undefined) | Ki | 0.679 µM |
| COc1cc2c3c(c1OC)-c1cc(N)ccc1CC3N(C)CC2 (centres undefined) | Ki | 0.26 µM |

What does the record list as Ki for C=CCOc1c(OC)cc2c3c1-c1cc(N)ccc1CC3N(C)CC2 (centres undefined) ?
0.759 µM

Now the same for COc1cc2c3c(c1OC)-c1cc(NC(C)=O)ccc1CC3N(C)CC2 (centres undefined)
0.978 µM

###

# testSystem: 5-hydroxytryptamine receptor 1A (Homo sapiens, UniProt P08908)
# Sequence (P08908 whole entry): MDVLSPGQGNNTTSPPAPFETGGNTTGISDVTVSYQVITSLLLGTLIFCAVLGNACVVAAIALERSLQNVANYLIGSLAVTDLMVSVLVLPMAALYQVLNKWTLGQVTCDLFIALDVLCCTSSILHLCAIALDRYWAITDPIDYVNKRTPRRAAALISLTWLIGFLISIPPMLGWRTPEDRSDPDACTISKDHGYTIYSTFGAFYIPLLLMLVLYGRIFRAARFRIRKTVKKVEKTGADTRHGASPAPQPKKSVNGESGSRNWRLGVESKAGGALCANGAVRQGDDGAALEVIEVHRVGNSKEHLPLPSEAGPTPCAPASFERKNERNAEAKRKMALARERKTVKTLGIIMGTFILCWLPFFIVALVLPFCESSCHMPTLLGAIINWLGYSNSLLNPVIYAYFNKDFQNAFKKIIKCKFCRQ
Simple rule here: Ki less than 400 nM is satisfied, otherwise not satisfied.

| compound | label |
| --- | --- |
| COc1cc2c3c(c1OC)-c1cc([N+](=O)[O-])ccc1CC3N(C)CC2 (configuration not stated) | not satisfied |
| COc1cc2c3c(c1OC)-c1cc(N)ccc1CC3N(C)CC2 (configuration not stated) | satisfied |
| CN1CCc2cccc3c2C1Cc1ccc([N+](=O)[O-])cc1-3 (configuration not stated) | satisfied |

is_below(Ki, 400 nM) for COc1cc2c3c(c1O)-c1cc([N+](=O)[O-])ccc1CC3N(C)CC2 (configuration not stated) ?
not satisfied

Now the same for C#CCOc1c(OC)cc2c3c1-c1cc(N)ccc1CC3N(C)CC2 (configuration not stated)
not satisfied

Now the same for C=CCOc1c(OC)cc2c3c1-c1cc([N+](=O)[O-])ccc1CC3N(C)CC2 (configuration not stated)
not satisfied

Now the same for CCCC(=O)Nc1ccc2c(c1)-c1cccc3c1C(C2)N(C)CC3 (configuration not stated)
satisfied
